system.name: T1, human TMEM106B (human, UniProt Q9NUM4 2-274)
T1 construct: Full-length, on transiently transfected HEK293 cells, or natively expressed on HeLa, U251 and A549 cells; also called huTMEM106B; huTMEM
assay.explanation: FACS A549, 1 ug/ml
experimental.readout: MFI

# count of solved cases: 3
anti-TMEM106B antibody TM-42 (antibody, V domains shown) VH: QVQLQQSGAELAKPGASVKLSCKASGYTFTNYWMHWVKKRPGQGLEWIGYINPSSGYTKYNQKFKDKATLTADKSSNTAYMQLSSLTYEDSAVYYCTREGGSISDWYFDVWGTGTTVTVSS VL: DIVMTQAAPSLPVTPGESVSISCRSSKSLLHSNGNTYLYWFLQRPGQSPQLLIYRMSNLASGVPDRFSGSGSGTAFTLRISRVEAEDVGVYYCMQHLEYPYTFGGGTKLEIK    1780
anti-TMEM106B antibody TM-23 (antibody, V domains shown) VH: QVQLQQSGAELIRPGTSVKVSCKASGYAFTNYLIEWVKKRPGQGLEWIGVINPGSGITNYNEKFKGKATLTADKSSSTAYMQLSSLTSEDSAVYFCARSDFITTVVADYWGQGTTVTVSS VL: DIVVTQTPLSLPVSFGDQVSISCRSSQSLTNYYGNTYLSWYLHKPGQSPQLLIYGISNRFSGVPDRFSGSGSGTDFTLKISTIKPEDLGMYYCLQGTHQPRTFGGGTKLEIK    398
anti-TMEM106B antibody TM-8 (antibody, V domains shown, mouse IgG from hybridoma) VH: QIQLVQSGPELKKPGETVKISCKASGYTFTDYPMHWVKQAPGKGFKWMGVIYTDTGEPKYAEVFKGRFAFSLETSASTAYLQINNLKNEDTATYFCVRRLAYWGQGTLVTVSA VL: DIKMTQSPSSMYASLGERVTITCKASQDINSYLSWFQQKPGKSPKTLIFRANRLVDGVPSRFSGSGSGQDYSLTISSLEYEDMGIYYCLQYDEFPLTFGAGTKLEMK    393

Exercise: May I ask what MFI has been recorded for anti-TMEM106B antibody TM-1 (antibody, V domains shown) VH: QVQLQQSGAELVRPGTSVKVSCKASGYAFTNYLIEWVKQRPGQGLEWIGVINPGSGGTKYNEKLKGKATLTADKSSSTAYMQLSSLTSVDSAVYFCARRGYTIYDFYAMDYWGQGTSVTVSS VL: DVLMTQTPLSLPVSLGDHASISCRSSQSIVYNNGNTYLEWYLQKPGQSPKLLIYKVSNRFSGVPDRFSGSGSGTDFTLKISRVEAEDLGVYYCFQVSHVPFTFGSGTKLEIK ?
Solution: 364

Exercise: Recorded MFI of anti-TMEM106B antibody TM-25 (antibody, V domains shown) VH: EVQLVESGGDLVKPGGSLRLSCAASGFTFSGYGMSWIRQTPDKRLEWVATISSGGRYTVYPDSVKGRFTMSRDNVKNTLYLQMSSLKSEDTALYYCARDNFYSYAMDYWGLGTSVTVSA VL: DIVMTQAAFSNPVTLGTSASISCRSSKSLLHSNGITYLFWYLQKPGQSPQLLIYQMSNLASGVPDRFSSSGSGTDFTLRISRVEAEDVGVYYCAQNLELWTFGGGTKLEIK , please.
Solution: 4530

Values were extracted from patent US20230303681A1.
